# Target: BACE2 (Rattus norvegicus)
# Construct: endogenous cellular BACE2 in the Ins1e rat cell line; endogenous in cells
# Sequence (Q6IE75 63-514): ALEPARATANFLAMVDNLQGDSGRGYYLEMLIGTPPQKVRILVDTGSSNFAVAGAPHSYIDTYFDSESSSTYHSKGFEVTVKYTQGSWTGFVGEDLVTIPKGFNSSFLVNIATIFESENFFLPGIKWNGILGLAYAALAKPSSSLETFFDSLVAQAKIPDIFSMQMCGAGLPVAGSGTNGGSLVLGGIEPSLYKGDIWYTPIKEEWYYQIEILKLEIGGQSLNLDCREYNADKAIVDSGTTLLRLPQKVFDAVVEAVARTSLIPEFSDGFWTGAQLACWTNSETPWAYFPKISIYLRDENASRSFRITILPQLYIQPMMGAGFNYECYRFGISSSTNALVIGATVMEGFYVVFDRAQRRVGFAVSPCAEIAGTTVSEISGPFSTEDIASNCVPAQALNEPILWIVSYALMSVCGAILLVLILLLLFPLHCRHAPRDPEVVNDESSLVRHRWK
# Measurement description: Assay for BACE inhibition by measuring cellular TMEM27 cleavage (INS-TMEM27 cells, ELISA of shed TMEM27)
# Run conditions: inhibition of human TMEM27 cleavage by endogenous cellular BACE2 in Ins1e rat cell line; ELISA of culture medium
pIC50: −log10 of the molar value.
Parameter: pIC50

Compound	Target	Reading
C[C@]1(c2cc(NC(=O)c3ncccc3F)ccc2F)N=C(N)OCC12CC2 [Example 37]	BACE2 (Rattus norvegicus)	7.40
Cc1cc(Cl)cnc1C(=O)Nc1ccc(F)c([C@]2(C)CCOC(N)=N2)c1 [Example 26]	BACE2 (Rattus norvegicus)	9.00
C[C@@]1(c2cc(NC(=O)C3CC3(F)F)ccc2F)CCOC(N)=N1 (stereo partly shown) [Example 46]	BACE2 (Rattus norvegicus)	7.15
C[C@@]1(c2cc(NC(=O)c3cnc(Cl)cn3)ccc2F)CCOC(N)=N1 [Example 14]	BACE2 (Rattus norvegicus)	6.72

a = CC[C@@]1(c2cc(NC(=O)c3ccc(Cl)cn3)ccc2F)CCOC(N)=N1 [Example 19]
b = Cc1ccsc1C(=O)Nc1ccc(F)c([C@]2(C)CCOC(N)=N2)c1 [Example 34]
Identify the entry with the smaller pIC50: a or b . // caller expects the label of the chosen entry
b

A = C[C@@]1(c2cc(NC(=O)c3ccc(Cl)cn3)ccc2F)CCOC(N)=N1 [Example 2]
B = C[C@]1(c2cc(NC(=O)c3ncc(Cl)cc3Cl)ccc2F)N=C(N)OCC12CC2 [Example 53]
C = COc1cccnc1C(=O)Nc1ccc(F)c([C@]2(C)CCOC(N)=N2)c1 [Example 27]
D = C[C@@]1(c2cc(NC(=O)C3(C(F)(F)F)CC3)ccc2F)CCOC(N)=N1 [Example 58]
E = C[C@@]1(c2cc(NC(=O)c3ccccn3)ccc2F)CCOC(N)=N1 [Example 4]
Sort the compounds on pIC50; start with the lowest figure. Rank the items, then write their labels in that order.
D, E, C, A, B

Source of measurements: patent US7964594B1
